Just for reference, patent US20090215857A1 is where these values come from.

- TARGET_UNDER_TEST: human norepinephrine transporter (Homo sapiens, UniProt P23975)
- Construct: expressed in transfected cells; host or cells: HEK-293
- Sequence (P23975 whole entry): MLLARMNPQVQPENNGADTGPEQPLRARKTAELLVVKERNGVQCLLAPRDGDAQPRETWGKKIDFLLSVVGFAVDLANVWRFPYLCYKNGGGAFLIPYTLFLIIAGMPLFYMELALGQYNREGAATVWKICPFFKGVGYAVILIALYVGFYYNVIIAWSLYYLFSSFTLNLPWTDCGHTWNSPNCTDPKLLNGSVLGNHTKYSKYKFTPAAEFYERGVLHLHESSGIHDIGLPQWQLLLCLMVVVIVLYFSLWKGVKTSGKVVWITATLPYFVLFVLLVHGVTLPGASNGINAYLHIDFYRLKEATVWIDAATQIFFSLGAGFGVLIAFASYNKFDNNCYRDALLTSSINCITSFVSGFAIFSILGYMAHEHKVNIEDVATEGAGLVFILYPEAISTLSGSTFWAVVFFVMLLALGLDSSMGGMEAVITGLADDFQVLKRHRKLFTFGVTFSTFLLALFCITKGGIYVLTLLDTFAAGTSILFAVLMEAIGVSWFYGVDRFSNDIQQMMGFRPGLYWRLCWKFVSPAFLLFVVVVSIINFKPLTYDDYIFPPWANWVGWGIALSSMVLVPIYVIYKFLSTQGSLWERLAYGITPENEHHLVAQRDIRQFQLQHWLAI
- PROTOCOL_TEXT: hNET receptor binding ([125I]-RTI-55 radioligand)
- DETAILS: membranes of HEK-293 cells transfected with human norepinephrine transporter cDNA; 50 pM [125I]-RTI-55; IC50 converted by Cheng-Prusoff; read-out: NET Ki
pKi: −log10 of the molar value. Counter-ions that a name gives are not always drawn.
QUANTITY_KIND: pKi

Sample records with pKi:
Oc1cccc(-c2ccc(F)cc2CO[C@H]2CCNC2)c1 ... 7.17
c1ccc(-c2ccc3c(c2)OCCCO3)c(CO[C@H]2CCNC2)c1 ... 5.35
Fc1ccc(-c2ccccc2CO[C@H]2CCNC2)cc1Cl [Example A-11, hydrochloride] ... 7.41
c1cncc(-c2ccccc2CO[C@H]2CCNC2)c1 [Example A-27, hydrochloride] ... 5.66
COc1ccc(-c2ccccc2CO[C@H]2CCNC2)cc1F ... 6.95
N#Cc1cccc(-c2ccc(F)cc2F)c1CO[C@H]1CCNC1 [Example E-2, fumarate] ... 6.12
Cc1ccccc1-c1ccccc1CO[C@H]1CCNC1 ... 6.56
Fc1ccc(-c2cc(Cl)cc(Cl)c2)c(CO[C@H]2CCNC2)c1 ... 6.58
COc1cccc(-c2ccc(F)cc2CO[C@H]2CCNC2)c1 ... 6.84
Fc1ccc(-c2ncccc2CO[C@H]2CCNC2)c(F)c1 [Example B-1, fumarate] ... 5.99

[P] Cc1ccc(-c2ccc(F)cc2CO[C@H]2CCNC2)cc1
[Q] Fc1ccc(-c2ccccc2CO[C@H]2CCNC2)cc1 [Example A-8, maleate]
[R] COc1ccc(-c2ccc(F)cc2CO[C@H]2CCNC2)cc1C
[S] Fc1ccc(-c2ccc(Cl)cc2)c(CO[C@H]2CCNC2)c1
Query: Order each entry by recorded pKi, climbing from the minimum. Answer format: the labels, in the requested order.
Response: R, S, P, Q
(R: 6.73, S: 7.01, P: 7.44, Q: 7.82)

[P] Cc1cc(-c2ccccc2CO[C@H]2CCNC2)ccc1F
[Q] Fc1ccc(F)c(-c2ccccc2CO[C@H]2CCNC2)c1
Query: So which one has the bigger pKi here, P or Q ? // respond with label for picked entry
Response: Q
(Q: 7.66, P: 7.40)

[P] c1ccc(-c2ccncc2)c(CO[C@H]2CCNC2)c1 [Example A-28, hydrochloride]
[Q] Fc1cccc(-c2ncccc2CO[C@H]2CCNC2)c1F [Example B-2, fumarate]
[R] Fc1cccc(-c2cccc(F)c2CO[C@H]2CCNC2)c1F [Example A-33, fumarate]
[S] Cc1ccc(-c2ccccc2CO[C@H]2CCNC2)cc1 [Example A-2, hydrochloride]
Query: Rank by pKi (largest to smallest). Answer format: the labels, in the requested order.
Response: S, R, Q, P
(S: 8.12, R: 7.59, Q: 6.69, P: 5.31)

[a] N#Cc1cccc(-c2cc(F)ccc2F)c1CO[C@H]1CCNC1 [Example E-1, fumarate]
[b] CC(=O)c1ccc(-c2ccccc2CO[C@H]2CCNC2)cc1
Query: So which one has the bigger pKi here, a or b ? // respond with label for picked entry
Response: a
